tested on: OVCAR5; assay: drug sensitivity score (DSS) from 5-point dose-response viability curve (DSS (area-under-curve based score)); higher = more sensitive (stronger growth inhibition or killing); extreme values may be limits of the assay; conditions: exposure time: 72 h; concentration range: 5 concentrations over 10,000-fold range
reportedProperty: drug sensitivity score
Give the figure only, with no unit attached.

Answer with the recorded drug sensitivity score of "CC[C@@H]1C(=O)N(C)c2cnc(Nc3ccc(C(=O)N[C@H]4CC[C@H](N5CCN(CC6CC6)CC5)CC4)cc3OC)nc2N1C(C)C" only.
12.2

***
Answer with the recorded drug sensitivity score of "CC(C)Oc1ccc(C(=O)N[C@H](CNC(=O)CN(C)C)Cc2ccc(-c3cn4cccc([C@H](C)O)c4n3)cc2)cc1Cl" only.
16.3

Answer with the recorded drug sensitivity score of CC(C)C(=O)Nc1ccc([N+](=O)[O-])c(C(F)(F)F)c1 [Flutamide] only.
0.1

Answer with the recorded drug sensitivity score of "C=CC(=O)Nc1cc(Nc2nccc(-c3cn(C)c4ccccc34)n2)c(OC)cc1N(C)CCN(C)C" only.
5.3

---

# drug sensitivity score annotations
test system: JHOS2; experiment: drug sensitivity score (DSS) from 5-point dose-response viability curve (DSS (area-under-curve based score)); higher = more sensitive (stronger growth inhibition or killing); extreme values may be limits of the assay; settings: exposure time: 72 h; concentration range: 5 concentrations over 10,000-fold range
Give the figure only, with no unit attached.

Worked examples, 3 molecules total:
Fill: drug sensitivity score (JHOS2) for this molecule "CCS(=O)(=O)c1cccc(-c2cc(C(=O)NC3CCN(C)CC3)c(C)c3[nH]c4ncc(C)cc4c23)c1"
1.2

Fill: drug sensitivity score (JHOS2) for this molecule "CN1CCN(c2nc(C3=C(c4c[nH]c5ccccc45)C(=O)NC3=O)c3ccccc3n2)CC1"
0.2

Fill: drug sensitivity score (JHOS2) for this molecule "Cc1cc2c(F)c(Oc3ncnn4cc(OC[C@@H](C)O)c(C)c34)ccc2[nH]1"
0

***
Fill: drug sensitivity score (JHOS2) for this molecule "CCc1c(C(=O)C(N)=O)c2c(OCC(=O)O)cccc2n1Cc1ccccc1"
0.1

---

# drug sensitivity score annotations
system: HOSE1C; assay: drug sensitivity score (DSS) from 5-point dose-response viability curve (DSS (area-under-curve based score)); higher = more sensitive (stronger growth inhibition or killing); extreme values may be limits of the assay; conditions: exposure time: 72 h; concentration range: 5 concentrations over 10,000-fold range
Give the figure only, with no unit attached.

Worked examples, 4 compounds total:
Answer with the recorded drug sensitivity score of "O=C(Nc1cccc(NC(=O)c2cccc(O)c2O)c1)c1cccc(O)c1O" only.
11.9

Answer with the recorded drug sensitivity score of "COc1nc(N)nc2c1ncn2[C@@H]1O[C@H](CO)[C@@H](O)[C@@H]1O" only.
0

Answer with the recorded drug sensitivity score of "C[C@]12CC[C@H](O)CC1=CC[C@@H]1[C@@H]2CC[C@]2(C)C(c3cccnc3)=CC[C@@H]12" only.
0.1

Answer with the recorded drug sensitivity score of "C=C1C[C@@H]2CC[C@@]34C[C@H]5O[C@H]6[C@@H](O3)[C@H]3O[C@H](CC[C@@H]3O[C@H]6[C@H]5O4)CC(=O)C[C@@H]3[C@@H](OC)[C@@H](C[C@H](O)CN)O[C@H]3C[C@H]3O[C@@H](CC[C@@H]1O2)C[C@@H](C)C3=C" only.
25.8

***
Answer with the recorded drug sensitivity score of "CCNC(=O)c1noc(-c2cc(C(C)C)c(O)cc2O)c1-c1ccc(CN2CCOCC2)cc1" only.
23.1

Answer with the recorded drug sensitivity score of "CC[C@]1(O)C[C@H]2CN(CCc3c([nH]c4ccccc34)[C@@](C(=O)OC)(c3cc4c(cc3OC)N(C=O)[C@H]3[C@@](O)(C(=O)OC)[C@H](OC(C)=O)[C@]5(CC)C=CCN6CC[C@]43[C@@H]65)C2)C1" only.
16.3

Answer with the recorded drug sensitivity score of "CC1(C)CCC(c2ccc(Cl)cc2)=C(CN2CCN(c3ccc(C(=O)NS(=O)(=O)c4ccc(N[C@H](CCN5CCOCC5)CSc5ccccc5)c(S(=O)(=O)C(F)(F)F)c4)cc3)CC2)C1" only.
24.2

Answer with the recorded drug sensitivity score of CC1CCC(n2c3cnccc3c3cnc(Nc4ccc5c(n4)CCN(C(=O)CO)C5)nc32)CC1 (stereo not drawn) only.
0
